Entries annotated with measured INHIBITION
tested on: Plasmodium berghei; test: Screen against P. berghei liver stage (PbLuc), transformed with Luciferase, at 10uM; assay type: functional, HepG2; settings: tested at 10 uM
In all, about 69,000 compounds went through this assay and about 8,600 (12%) showed an effect of 50% or more. This is one part of a sample in which strong results are shown more often than they occur.
property.label: INHIBITION

>>> obs_value("Cc1noc(C2CN(Cc3ccc4c(c3)CCO4)C2)n1")
"-5.01%"
>>> obs_value("CO[C@H]1C[C@@H](O)C12CCN(CCCOc1ccc(C(N)=O)cc1)CC2")
"33.7%"
>>> obs_value("COCCN(Cc1cnn(C)c1)CC1CCN(C(C)C)CC1")
"33.7%"
>>> obs_value("c1csc(-c2noc(C3CCCNC3)n2)c1 (stereo unspecified)")
"41.5%"
>>> obs_value("COc1cccc(N2CCN(C(=O)CN(C)c3cnccn3)CC2)c1")
"35.4%"
>>> obs_value("Cc1cnc(CNCc2cn(CCN3CCSCC3)nc2C)cn1")
"4.68%"
>>> obs_value("CCS(=O)(=O)CCNC(=O)C1(c2cccc(Cl)c2)CC1")
"44.8%"
>>> obs_value("Cc1noc(C)c1CN1CC[C@H](OCC2CC2)[C@@H](Cc2ccccc2)C1")
"53.2%"
>>> obs_value("CC(=O)Nc1nc(CN2CCCCC2Cn2cncn2)cs1 (stereo unspecified)")
"0.411%"
>>> obs_value("CN(C)C(=O)Cc1nc(CN2CCCCC2Cn2cncn2)cs1 (stereo unspecified)")
"19.1%"
>>> obs_value("COc1ccccc1OCCCN1CC=C(c2cnn(C)c2)CC1")
"30.1%"
>>> obs_value("CCc1nnc(Nc2cccc(C3CCN(c4cnccn4)CC3)n2)s1")
"36.4%"
>>> obs_value("Cn1cc(C2=CCN(CCC(=O)NCc3ccc(Cl)cc3)CC2)cn1")
"33.7%"
>>> obs_value("CCOc1cccc(C2CC(=O)NCc3nc(N(C)C)sc32)c1 (stereo unspecified)")
"11.7%"
>>> obs_value("CC(C)(C)c1n[nH]cc1CNC1CCC(C(F)(F)F)CC1 (stereo unspecified)")
"-32.6%"
>>> obs_value("CCS(=O)(=O)N1CC(c2nc(-c3cccs3)no2)C1")
"9.41%"
>>> obs_value("CN(C)C(=O)Cc1nc(CN2CCCC2Cn2cncn2)cs1 (stereo unspecified)")
"60.8%"
>>> obs_value("CC(C)C(Sc1nnc(NC2CC2)s1)C(=O)NCc1cccnc1 (stereo unspecified)")
"-26.7%"
>>> obs_value("NC(=O)CCN(CC(=O)NCc1cccs1)c1ccc(F)cc1")
"47.3%"
>>> obs_value("CCn1cc(C2=CCN(CCCOc3ccccc3)CC2)cn1")
"9.56%"
>>> obs_value("CC(=O)N1CCCN(Cc2cc(F)cc(Br)c2)CC1")
"33.4%"
>>> obs_value("Cc1cc(CCC2CN(CC3(O)CCCCC3)CCO2)ncn1 (stereo unspecified)")
"-3.02%"
>>> obs_value("CCOc1ccccc1N(C)Cc1nccn1C")
"52.6%"
>>> obs_value("Cc1oc(C(C)C)cc1C(=O)N1CCN(c2cnn(C)c(=O)c2)CC1")
"51.1%"
>>> obs_value("CC(NC(=O)NCCn1ccnc1)c1ccc2c(c1)OCCCO2 (stereo unspecified)")
"-9.37%"
>>> obs_value("CCc1ncc(C(=O)N2CCN(c3cnn(C)c(=O)c3)CC2)cn1")
"45.8%"
